# Test system: Mycobacterium tuberculosis
# methodDescription: Antibacterial activity against Mycobacterium tuberculosis ATCC 25177 by resazurin microplate assay
# Format: functional
Square brackets hold non-standard residues; d marks the D form. Peptide text beside a SMILES is read from it. * marks the point of attachment. Pro(4S-Me) = C[C@@H]1CN[C@H](C(=O)O)C1; Decanoyl = CCCCCCCCCC(=O)*; Valol = CC(C)[C@@H](CO)N*; Aib = CC(C)(N)C(=O)O
measureName: MIC (µM)

molecule="CCCCCCCCCC(=O)NC(C)(C)C(=O)N1C[C@@H](C)C[C@H]1C(=O)N[C@@H](Cc1ccccc1)C(=O)NC(C)(C)C(=O)N[C@@H](CCC(N)=O)C(=O)N[C@@H](CCC(N)=O)C(=O)NC(C)(C)C(=O)NC(C)(C)C(=O)N[C@@H](CCC(N)=O)C(=O)N[C@@H](CC(C)C)C(=O)N[C@H](CO)C(C)C (Decanoyl-[Aib][Pro(4S-Me)]F[Aib]QQ[Aib][Aib]QL-Valol)" measurename=MIC endpointvalue=40
molecule="CO[C@H]1/C=C/O[C@@]2(C)Oc3c(C)c(O)c4c(O)c(c(/C=N/N5CCN(C)CC5)c(O)c4c3C2=O)NC(=O)/C(C)=C\\C=C\\[C@H](C)[C@H](O)[C@@H](C)[C@@H](O)[C@@H](C)[C@H](OC(C)=O)[C@@H]1C [RIFAMPIN]" measurename=MIC endpointvalue=0.062
molecule=C=C[C@@H]1C[C@H](C)C[C@H](C)[C@H]1c1c(O)ccn(O[C@@H]2C(C(=O)OC)=C[C@@H](O)[C@@H](O)[C@H]2O)c1=O measurename=MIC endpointvalue=250
molecule="CCCCCCCCCC(=O)NC(C)(C)C(=O)N1CCC[C@H]1C(=O)N[C@@H](Cc1ccccc1)C(=O)NC(C)(C)C(=O)N[C@@H](CCC(N)=O)C(=O)N[C@@H](CCC(N)=O)C(=O)NC(C)(C)C(=O)NC(C)(C)C(=O)N[C@@H](CCC(N)=O)C(=O)N[C@@H](CC(C)C)C(=O)N[C@H](CO)C(C)C (Decanoyl-[Aib]PF[Aib]QQ[Aib][Aib]QL-Valol)" measurename=MIC endpointvalue=20

###

# Tested on: Staphylococcus aureus
# methodDescription: Antibacterial activity against methicillin-susceptible Staphylococcus aureus measured after 18 to 20 hrs by broth microdilution method
# Format: functional
# details: time 18-20 hrs
Square brackets hold non-standard residues; d marks the D form. Peptide text beside a SMILES is read from it. * marks the point of attachment. Pro(4S-Me) = C[C@@H]1CN[C@H](C(=O)O)C1; Decanoyl = CCCCCCCCCC(=O)*; Valol = CC(C)[C@@H](CO)N*; Aib = CC(C)(N)C(=O)O
As shown below, each of these compounds has a reported MIC value.
measureName: MIC (µM)

compound=C=C[C@@H]1C[C@H](C)C[C@H](C)[C@H]1c1c(O)ccn(O[C@@H]2C(C(=O)OC)=C[C@@H](O)[C@@H](O)[C@H]2O)c1=O resultunit=µM endpointvalue=128
compound="CCCCCCCCCC(=O)NC(C)(C)C(=O)N1C[C@@H](C)C[C@H]1C(=O)N[C@@H](Cc1ccccc1)C(=O)NC(C)(C)C(=O)N[C@@H](CCC(N)=O)C(=O)N[C@@H](CCC(N)=O)C(=O)NC(C)(C)C(=O)NC(C)(C)C(=O)N[C@@H](CCC(N)=O)C(=O)N[C@@H](CC(C)C)C(=O)N[C@H](CO)C(C)C (Decanoyl-[Aib][Pro(4S-Me)]F[Aib]QQ[Aib][Aib]QL-Valol)" resultunit=µM endpointvalue=4
compound="CCCCCCCCCC(=O)NC(C)(C)C(=O)N1CCC[C@H]1C(=O)N[C@@H](Cc1ccccc1)C(=O)NC(C)(C)C(=O)N[C@@H](CCC(N)=O)C(=O)N[C@@H](CCC(N)=O)C(=O)NC(C)(C)C(=O)NC(C)(C)C(=O)N[C@@H](CCC(N)=O)C(=O)N[C@@H](CC(C)C)C(=O)N[C@H](CO)C(C)C (Decanoyl-[Aib]PF[Aib]QQ[Aib][Aib]QL-Valol)" resultunit=µM endpointvalue=8
compound=CO[C@H]1/C=C/O[C@@]2(C)Oc3c(C)c(O)c4c(O)c(c(/C=N/N5CCN(C)CC5)c(O)c4c3C2=O)NC(=O)/C(C)=C\C=C\[C@H](C)[C@H](O)[C@@H](C)[C@@H](O)[C@@H](C)[C@H](OC(C)=O)[C@@H]1C resultunit=µM endpointvalue=0.01

###

# Tested on: Klebsiella pneumoniae
# methodDescription: Antibacterial activity against Klebsiella pneumoniae measured after 18 to 20 hrs by broth microdilution method
# Format: functional
# details: time 18-20 hrs
Square brackets hold non-standard residues; d marks the D form. Peptide text beside a SMILES is read from it. * marks the point of attachment. Pro(4S-Me) = C[C@@H]1CN[C@H](C(=O)O)C1; Decanoyl = CCCCCCCCCC(=O)*; Valol = CC(C)[C@@H](CO)N*; Aib = CC(C)(N)C(=O)O
As shown below, each of these molecules has a reported MIC value.
measureName: MIC

molecule="CCCCCCCCCC(=O)NC(C)(C)C(=O)N1C[C@@H](C)C[C@H]1C(=O)N[C@@H](Cc1ccccc1)C(=O)NC(C)(C)C(=O)N[C@@H](CCC(N)=O)C(=O)N[C@@H](CCC(N)=O)C(=O)NC(C)(C)C(=O)NC(C)(C)C(=O)N[C@@H](CCC(N)=O)C(=O)N[C@@H](CC(C)C)C(=O)N[C@H](CO)C(C)C (Decanoyl-[Aib][Pro(4S-Me)]F[Aib]QQ[Aib][Aib]QL-Valol)" endpointvalue="> 128 µM"
molecule="CCCCCCCCCC(=O)NC(C)(C)C(=O)N1CCC[C@H]1C(=O)N[C@@H](Cc1ccccc1)C(=O)NC(C)(C)C(=O)N[C@@H](CCC(N)=O)C(=O)N[C@@H](CCC(N)=O)C(=O)NC(C)(C)C(=O)NC(C)(C)C(=O)N[C@@H](CCC(N)=O)C(=O)N[C@@H](CC(C)C)C(=O)N[C@H](CO)C(C)C (Decanoyl-[Aib]PF[Aib]QQ[Aib][Aib]QL-Valol)" endpointvalue="> 128 µM"
molecule=C=C[C@@H]1C[C@H](C)C[C@H](C)[C@H]1c1c(O)ccn(O[C@@H]2C(C(=O)OC)=C[C@@H](O)[C@@H](O)[C@H]2O)c1=O endpointvalue="> 128 µM"
